Attribution: patent US7381749B2

Tested on: HDAC in cells
protocolDescription: Cellular IC50 (cellular assays: histone hyperacetylation cytoblot / differential cytotoxicity)
Assay type: cell-based
conditionSet: transformed cell lines (e.g. HeLa, A549, MCF-7); cell line not specified
pIC50: −log10 of the molar value.
assayEndpoint: pIC50

Worked set:
> print(dat)
                                   molecule   testedsystem   value
1  CC(=O)SCC(=O)c1ccc(NS(=O)(=O)c2cccc(OC(F)(F)F)c2)cc1 [Example 41]  HDAC in cells  > 6.00
2  CC(=O)SCC(=O)c1ccc(NS(=O)(=O)c2ccc(C)cc2)cc1 [Example 16]  HDAC in cells  > 6.00
3  CC(=O)SCC(=O)c1ccc(NS(=O)(=O)c2cccc(C(F)(F)F)c2)cc1 [Example 17]  HDAC in cells  > 5.00
4  CC(=O)SCC(=O)c1ccc(NS(=O)(=O)c2cn(C)c(C)n2)cc1 [Example 24]  HDAC in cells  > 5.00
5  COc1cccc(S(=O)(=O)Nc2ccc(C(=O)CSC(C)=O)cc2)c1 [Example 21]  HDAC in cells  > 6.00

Look at this molecule and give its reported pIC50. CC(=O)SCC(=O)c1ccc2c(c1)CCN2S(=O)(=O)c1ccccn1 [Example 53]
> 6.00

Look at this molecule and give its reported pIC50. CC(=O)SCC(=O)c1ccc(NS(=O)(=O)c2ccccc2)cc1 [Example 33]
> 5.00

Look at this molecule and give its reported pIC50. CC(=O)SCC(=O)c1ccc(NS(=O)(=O)c2cccc(F)c2)cc1 [Example 46]
> 6.00

Look at this molecule and give its reported pIC50. COc1cccc(S(=O)(=O)Nc2ccc(C(=O)CSC(C)=O)cn2)c1 [Example 50]
> 6.00
